# Tested on: MV-4-11 cells
# assay-procedure: AML cell viability assay (RealTime-Glo)
# Format: cell-based
# cond: Homo sapiens, MV4-11; IC50 class; MV-4-11 cells, RealTime-Glo after 44 hrs of treatment (TABLE 3); read-out: Cell viability classification
pIC50: −log10 of the molar value.
Readings of pIC50 for the listed compounds
measurement-label: pIC50

1. N[C@H]1CC[C@H](N(CCN2CCOCC2)c2cccc3c2CN(C2CCC(=O)NC2=O)C3=O)CC1 (stereo partly shown) [Compound 244]
< 6.00
2. O=C1CCC(N2Cc3c(cccc3N(CCC3CC3)[C@H]3CC[C@H](NC4COC4)CC3)C2=O)C(=O)N1 (stereo partly shown) [Compound 517]
> 7.00
3. O=C1CCC(N2Cc3c(cccc3N(CC3CC3)[C@H]3CC[C@H](NC4COC4)CC3)C2=O)C(=O)N1 (stereo partly shown) [Compound 534]
> 7.00
4. NC[C@]1(O)CC[C@H](N(CCC2CC2)c2cccc3c2CN(C2CCC(=O)NC2=O)C3=O)CC1 (stereo partly shown) [Compound 523]
6.00 to 7.00

====

# Test system: MV-4-11 cells
# assay-procedure: AML cell viability assay (RealTime-Glo)
# Format: cell-based
# cond: Homo sapiens, MV4-11; IC50 class; MV-4-11 cells, RealTime-Glo after 44 hrs of treatment (TABLE 3); read-out: Cell viability classification
Structures can show the parent of a compound that is named as a salt.
measurement-label: IC50

1. N[C@H]1CC[C@H](N(CCC2CC2)c2cccc3c2CN(C2CCC(=O)NC2=O)C3=O)CC1 (stereo partly shown) [Compound 237, HCl]
< 100 nM
2. N[C@H]1CC[C@H](N(CCCC2CCOCC2)c2cccc3c2CN(C2CCC(=O)NC2=O)C3=O)CC1 (stereo partly shown) [Compound 242, hydrochloride]
< 100 nM
3. O=C1CCC(N2Cc3c(cccc3N(CCC3CC3)[C@H]3CC[C@@H](NC4CC(F)(F)C4)CC3)C2=O)C(=O)N1 (stereo partly shown) [Compound 515A]
100 to 1000 nM
4. O=C1CCC(N2Cc3c(cccc3N(CCCC(F)(F)F)[C@H]3CC[C@H](NCCC(F)(F)F)CC3)C2=O)C(=O)N1 (stereo partly shown)
100 to 1000 nM

====

# Test system: MV-4-11 cells
# assay-procedure: AML cell viability assay (RealTime-Glo)
# Assay type: cell-based
# cond: Homo sapiens, MV4-11; IC50 class; MV-4-11 cells, RealTime-Glo after 44 hrs of treatment (TABLE 3); read-out: Cell viability classification
Where a name gives a salt, the structure may show the parent alone.
Readings of IC50 for the listed molecules
measurement-label: IC50

1. O=C1CCC(N2Cc3c(cccc3N(CC3CC3)[C@H]3CC[C@H](NCCC(F)(F)F)CC3)C2=O)C(=O)N1 (stereo partly drawn)
< 100 nM
2. O=C1CCC(N2Cc3c(cccc3N(CCCC(F)(F)F)[C@H]3CC[C@H](NC4COC4)CC3)C2=O)C(=O)N1 (stereo partly drawn)
100 to 1000 nM
3. C[C@H]1CC[C@@H](N(c2cccc3c2CN(C2CCC(=O)NC2=O)C3=O)[C@H]2CC[C@H](N)CC2)CC1 (stereo partly drawn)
> 1000 nM
4. CC(C)(C)CCN(c1cccc2c1CN(C1CCC(=O)NC1=O)C2=O)[C@H]1CC[C@H](N)CC1 (stereo partly drawn) [Compound 267, hydrochloride]
< 100 nM
5. CCCCCN(c1cccc2c1CN(C1CCC(=O)NC1=O)C2=O)[C@H]1CCC[C@H](CN)C1 (stereo partly drawn) [Compound 329, HCl]
100 to 1000 nM
6. CCCCCN(c1cccc2c1CN(C1CCC(=O)NC1=O)C2=O)[C@H]1CC[C@H](NCCC)CC1 (stereo partly drawn) [Compound 312, HCl]
< 100 nM
7. CC(CC(F)(F)F)N[C@H]1CC[C@H](N(CCC2CC2)c2cccc3c2CN(C2CCC(=O)NC2=O)C3=O)CC1 (stereo partly drawn)
< 100 nM
8. O=C1CCC(N2Cc3c(cccc3N(CCC3CC3)[C@H]3CC[C@H](NC4CC(F)(F)C4)CC3)C2=O)C(=O)N1 (stereo partly drawn)
> 1000 nM
9. C[C@@H](N[C@H]1CC[C@H](N(CCC2CC2)c2cccc3c2CN(C2CCC(=O)NC2=O)C3=O)CC1)C(F)(F)F (stereo partly drawn)
100 to 1000 nM
10. COC(C)(C)CN[C@H]1CC[C@@H](N(CCC2CC2)c2cccc3c2CN(C2CCC(=O)NC2=O)C3=O)CC1 (stereo partly drawn) [Compound 541A]
100 to 1000 nM
11. N[C@H]1CC[C@H](N(CCCN2CCNCC2)c2cccc3c2CN(C2CCC(=O)NC2=O)C3=O)CC1 (stereo partly drawn)
> 1000 nM
12. C[C@@H](N[C@H]1CC[C@@H](N(CCC2CC2)c2cccc3c2CN(C2CCC(=O)NC2=O)C3=O)CC1)C(F)(F)F (stereo partly drawn) [Compound 548A]
100 to 1000 nM
13. N[C@H]1CC[C@H](N(CCCC2CCNCC2)c2cccc3c2CN(C2CCC(=O)NC2=O)C3=O)CC1 (stereo partly drawn)
> 1000 nM
14. CCCCCN(c1cccc2c1CN(C1CCC(=O)NC1=O)C2=O)[C@@H]1CC[C@H](CN)C1 (stereo partly drawn) [Compound 326, Formic Acid salt]
< 100 nM
15. N[C@H]1CC[C@H](N(CCC2CCNCC2)c2cccc3c2CN(C2CCC(=O)NC2=O)C3=O)CC1 (stereo partly drawn)
> 1000 nM
16. O=C1CCC(N2Cc3c(cccc3N(CCC3CC3)[C@H]3CC[C@H](NCC(F)F)CC3)C2=O)C(=O)N1 (stereo partly drawn)
100 to 1000 nM
17. CC(C)CCN(c1cccc2c1CN(C1CCC(=O)NC1=O)C2=O)[C@H]1CC[C@H](N)CC1 (stereo partly drawn) [Compound 238, hydrochloride]
< 100 nM
18. CCCCCN(c1cccc2c1CN(C1CCC(=O)NC1=O)C2=O)[C@H]1CC[C@H](NC(C)=O)CC1 (stereo partly drawn)
100 to 1000 nM
19. NC[C@]1(O)CC[C@H](N(CC2CC2)c2cccc3c2CN(C2CCC(=O)NC2=O)C3=O)CC1 (stereo partly drawn)
100 to 1000 nM
20. COCCN[C@H]1CC[C@H](N(CCC2CC2)c2cccc3c2CN(C2CCC(=O)NC2=O)C3=O)CC1 (stereo partly drawn)
< 100 nM
21. CC(C)CN(c1cccc2c1CN(C1CCC(=O)NC1=O)C2=O)[C@H]1CC[C@H](N)CC1 (stereo partly drawn) [Compound 236, HCl]
100 to 1000 nM
